Tested System: T1, IL-10R2-Fc/His (UniProt Q08334 20-220, limits assumed)
T1 sequence (looked up): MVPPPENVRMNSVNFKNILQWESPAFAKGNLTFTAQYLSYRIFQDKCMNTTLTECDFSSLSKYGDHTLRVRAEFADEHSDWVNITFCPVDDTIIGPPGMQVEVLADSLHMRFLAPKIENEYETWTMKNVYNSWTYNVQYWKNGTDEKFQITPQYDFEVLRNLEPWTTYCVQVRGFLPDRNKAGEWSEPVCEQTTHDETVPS
Assay Info: ELISA, IL-10R2-Fc/His coated
Consider the cut-off 90%. If the recorded Binding recovery (>60%) is strictly smaller, the label is t; if not, the label is f.

Worked set:
>  <Binder>
IL-10 Arg107Cys-R4-20 (ligand, human, UniProt P22301 19-178, looked up, R4-20 on Cys 107, mature) SPGQGTQSENSCTHFPGNLPNMLRDLRDAFSRVKTFFQMKDQLDNLLLKESLLEDFKGYLGCQALSEMIQFYLEEVMPQAENQDPDIKAHVNSLGENLKTLRLRLRCCHRFLPCENKSKAVEQVKNAFNKLQEKGIYKAMSEFDIFINYIEAYMTMKIRN

>  <Assigned Class>
t

$$$$
>  <Binder>
IL-10 Arg106Cys-R4-7 (ligand, human, UniProt P22301 19-178, looked up, R4-7 on Cys 106, mature) SPGQGTQSENSCTHFPGNLPNMLRDLRDAFSRVKTFFQMKDQLDNLLLKESLLEDFKGYLGCQALSEMIQFYLEEVMPQAENQDPDIKAHVNSLGENLKTLRLRLCRCHRFLPCENKSKAVEQVKNAFNKLQEKGIYKAMSEFDIFINYIEAYMTMKIRN

>  <Assigned Class>
f

$$$$

Ask | # strict comparison: is reported Binding recovery (>60%) < 90%? input = IL-10 Lys34Cys-R4-7 (ligand, human, UniProt P22301 19-178, looked up, R4-7 on Cys 34, mature) SPGQGTQSENSCTHFPGNLPNMLRDLRDAFSRVCTFFQMKDQLDNLLLKESLLEDFKGYLGCQALSEMIQFYLEEVMPQAENQDPDIKAHVNSLGENLKTLRLRLRRCHRFLPCENKSKAVEQVKNAFNKLQEKGIYKAMSEFDIFINYIEAYMTMKIRN
Reply | f

Ask | Please indicate whether the reported Binding recovery (>60%) of IL-10 Arg102Cys-R4-20 (ligand, human, UniProt P22301 19-178, looked up, R4-20 on Cys 102, mature) SPGQGTQSENSCTHFPGNLPNMLRDLRDAFSRVKTFFQMKDQLDNLLLKESLLEDFKGYLGCQALSEMIQFYLEEVMPQAENQDPDIKAHVNSLGENLKTLCLRLRRCHRFLPCENKSKAVEQVKNAFNKLQEKGIYKAMSEFDIFINYIEAYMTMKIRN is strictly below 90%.
Reply | f

Ask | Regarding IL-10 Glu122Cys-R4-12 (ligand, human, UniProt P22301 19-178, looked up, R4-12 on Cys 122, mature) SPGQGTQSENSCTHFPGNLPNMLRDLRDAFSRVKTFFQMKDQLDNLLLKESLLEDFKGYLGCQALSEMIQFYLEEVMPQAENQDPDIKAHVNSLGENLKTLRLRLRRCHRFLPCENKSKAVCQVKNAFNKLQEKGIYKAMSEFDIFINYIEAYMTMKIRN , kindly confirm whether its Binding recovery (>60%) is beneath 90%.
Reply | f
